target: 15-lipoxygenase (15-LO) (Glycine max); experiment: Inhibition of 15-lipoxygenase (15-LO); assay type: biochemical; conditions: 15-lipoxygenase (15-LO) inhibition IC50 ± SD, isolated compounds dissolved in DMSO; triplicates, mean ± SD
Sequence (P08170 whole entry): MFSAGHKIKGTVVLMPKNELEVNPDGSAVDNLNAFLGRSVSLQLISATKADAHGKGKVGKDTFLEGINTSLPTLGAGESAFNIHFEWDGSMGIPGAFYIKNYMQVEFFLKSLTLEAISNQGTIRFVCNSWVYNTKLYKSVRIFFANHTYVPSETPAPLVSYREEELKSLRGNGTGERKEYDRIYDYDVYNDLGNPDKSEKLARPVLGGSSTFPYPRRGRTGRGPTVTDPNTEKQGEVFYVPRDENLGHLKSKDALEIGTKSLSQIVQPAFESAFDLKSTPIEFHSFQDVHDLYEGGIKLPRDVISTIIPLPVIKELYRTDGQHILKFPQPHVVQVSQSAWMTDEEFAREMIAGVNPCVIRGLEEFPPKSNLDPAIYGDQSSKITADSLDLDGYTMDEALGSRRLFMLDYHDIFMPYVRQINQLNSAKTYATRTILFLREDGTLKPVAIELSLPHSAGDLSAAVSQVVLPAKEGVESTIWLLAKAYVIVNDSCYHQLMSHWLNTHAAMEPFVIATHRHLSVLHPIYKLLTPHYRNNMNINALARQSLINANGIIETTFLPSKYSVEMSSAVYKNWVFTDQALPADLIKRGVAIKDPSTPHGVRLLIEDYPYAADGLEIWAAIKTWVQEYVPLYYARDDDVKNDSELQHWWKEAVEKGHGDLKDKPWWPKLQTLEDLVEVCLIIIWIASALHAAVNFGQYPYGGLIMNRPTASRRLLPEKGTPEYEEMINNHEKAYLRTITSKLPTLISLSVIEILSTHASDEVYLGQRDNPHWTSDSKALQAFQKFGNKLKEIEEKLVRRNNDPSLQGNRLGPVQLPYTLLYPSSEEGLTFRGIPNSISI
property label: pIC50
Numbers only, as −log10 of the molar value.

Form field: reported pIC50 of "O=c1cc(-c2ccc(O)c(O)c2)oc2cc(O)c([C@@H]3O[C@H](CO)[C@@H](O)[C@H](O)[C@H]3O)c(O)c12"
4.06
